- assayedSystem: SARS-CoV-2 main protease (M^pro) (Severe acute respiratory syndrome coronavirus 2, UniProt P0DTD1)
assayMetric: kcat (S^−1)
Give the value in S^−1 but do not write S^−1 after it.

Q. Specify reported kcat for the substance shown: RVVKLQ/NDELMP [nsp8/9 N2′D]
A. 0.0029

Q. Tell me measured kcat for RVVKLQ/ANELMP [nsp8/9 N1′A] please.
A. 0.022

Q. Give me measured kcat, please, for this substance: TSAVLQ/SGFRKM [nsp4/5]
A. 0.52

Q. Please indicate kcat recorded for RVVKLQ/NAELMP [nsp8/9 N2′A]
A. 0.034

Q. Dear colleague, please send me the reported kcat for RVVKLQ/NNELMP [nsp8/9] when you can.
A. 0.013

----------
- assayedSystem: SARS-CoV-2 main protease (M^pro) (Severe acute respiratory syndrome coronavirus 2, UniProt P0DTD1)
I'd appreciate it if you marked entries fulfilled when Km is lower than 20 µM and not fulfilled when it is not.

Q. A record lists RVVKLQ/NNELMP [nsp8/9] . Is its Km below 20 µM?
A. not fulfilled

Q. Check if Km falls below 20 µM for RVVKLQ/NAELMP [nsp8/9 N2′A] .
A. not fulfilled

Q. Does the reported Km of TSAVLQ/SGFRKM [nsp4/5] stay below 20 µM?
A. not fulfilled

Q. Is Km of RVVKLQ/NDELMP [nsp8/9 N2′D] strictly below 20 µM?
A. fulfilled

Q. Decide: Km of RVVKLQ/ANELMP [nsp8/9 N1′A] strictly below 20 µM?
A. not fulfilled

----------
Entries below carry reported Fold change = (kcat/KM) nsp8/9 analog /(kcat/KM) nsp8/9 on SARS-CoV-2 main protease (M^pro) (Severe acute respiratory syndrome coronavirus 2).
Answer with a bare number; do not write a unit.

Q. Specify reported Fold change = (kcat/KM) nsp8/9 analog /(kcat/KM) nsp8/9 for the substance shown: RVVKLQ/NDELMP [nsp8/9 N2′D]
A. 0.4

Q. Identify measured Fold change = (kcat/KM) nsp8/9 analog /(kcat/KM) nsp8/9 associated with RVVKLQ/NAELMP [nsp8/9 N2′A]
A. 2.1

Q. Return the recorded Fold change = (kcat/KM) nsp8/9 analog /(kcat/KM) nsp8/9 value; entry: RVVKLQ/NNELMP [nsp8/9]
A. 1.0

Q. Please list Fold change = (kcat/KM) nsp8/9 analog /(kcat/KM) nsp8/9 recorded for the substance RVVKLQ/ANELMP [nsp8/9 N1′A]
A. 2.9

----------
- assayedSystem: SARS-CoV-2 main protease (M^pro) (Severe acute respiratory syndrome coronavirus 2, UniProt P0DTD1)
assayMetric: kcat/KM (catalytic efficiency)

Q. Provide measured kcat/KM (catalytic efficiency) value, entry: RVVKLQ/NNELMP [nsp8/9]
A. 3.6 ± 0.7 × 10^2 M^−1 s^−1

Q. Check the records and state kcat/KM (catalytic efficiency) for TSAVLQ/SGFRKM [nsp4/5]
A. 1.3 ± 0.3 × 10^4 M^−1 s^−1

Q. Tell me kcat/KM (catalytic efficiency) reported for RVVKLQ/ANELMP [nsp8/9 N1′A]
A. 1.0 ± 0.1 × 10^3 M^−1 s^−1

Q. State, in one line, measured kcat/KM (catalytic efficiency) of RVVKLQ/NAELMP [nsp8/9 N2′A]
A. 7.5 ±0.8 × 10^2 M^−1 s^−1

Q. Return reported kcat/KM (catalytic efficiency). Input substance: RVVKLQ/NDELMP [nsp8/9 N2′D]
A. 1.6 ± 1.2 × 10^2 M^−1 s^−1

Data provenance is paper PMC8424689.
